Numbers sourced from patent US10485800B2.

- studyTarget: MLK3 (Homo sapiens (Human), UniProt Q16584)
- Sequence (Q16584 whole entry): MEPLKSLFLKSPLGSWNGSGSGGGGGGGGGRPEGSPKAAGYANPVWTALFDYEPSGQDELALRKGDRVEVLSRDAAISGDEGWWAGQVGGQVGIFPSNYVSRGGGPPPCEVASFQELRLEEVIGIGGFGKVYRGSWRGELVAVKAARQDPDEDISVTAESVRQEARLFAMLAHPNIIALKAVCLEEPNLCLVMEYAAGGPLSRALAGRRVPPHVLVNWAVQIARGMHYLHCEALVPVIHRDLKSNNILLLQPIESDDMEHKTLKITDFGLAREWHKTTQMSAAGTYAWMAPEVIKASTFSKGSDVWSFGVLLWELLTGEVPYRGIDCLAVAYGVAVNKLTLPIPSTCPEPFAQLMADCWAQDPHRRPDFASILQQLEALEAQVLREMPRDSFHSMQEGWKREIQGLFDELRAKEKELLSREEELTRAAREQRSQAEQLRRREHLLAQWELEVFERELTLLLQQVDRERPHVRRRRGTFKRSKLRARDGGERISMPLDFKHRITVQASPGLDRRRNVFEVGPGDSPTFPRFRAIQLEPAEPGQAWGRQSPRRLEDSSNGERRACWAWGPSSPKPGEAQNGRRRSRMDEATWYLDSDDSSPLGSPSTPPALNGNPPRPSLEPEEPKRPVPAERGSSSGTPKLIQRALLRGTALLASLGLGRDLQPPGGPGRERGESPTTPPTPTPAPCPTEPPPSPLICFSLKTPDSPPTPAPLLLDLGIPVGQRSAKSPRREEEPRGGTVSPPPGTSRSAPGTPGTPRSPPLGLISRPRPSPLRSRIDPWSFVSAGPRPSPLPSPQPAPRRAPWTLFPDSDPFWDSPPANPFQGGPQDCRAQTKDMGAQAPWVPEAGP
- assayMethodText: Radiometric filter plate MLK3 assay
- Type: biochemical
- assayConditions: 2 μM cold ATP (Km), 1 μM inactive MKK7b, twenty minute incubation; read-out: MK3 IC50
testReadout: IC50

Would you please look over these solved cases?
{"columns": ["compound", "studyTarget", "IC50"],
 "data": [
  ["COc1cc(-c2cnc3[nH]c(=O)n(-c4ccc5cc[nH]c5c4)c3n2)cc(OC)c1OC [Example 113]", "MLK3 (Homo sapiens (Human), UniProt Q16584)", "< 0.1 µM"],
  ["COc1cc(OC)cc(-c2cnc3[nH]c(=O)n(-c4ccc5[nH]ccc5c4)c3n2)c1 [Example 65]", "MLK3 (Homo sapiens (Human), UniProt Q16584)", "> 1 µM"]
]}

The compound COc1ccc(-c2cnc3[nH]cc(-c4ccc(C(N)=O)cc4)c3c2)cc1OC [Example 26] , when measured on MLK3 (Homo sapiens (Human), UniProt Q16584), yielded IC50 of < 0.1 µM
